- experimentalDetails: Estimated solubility by solvent aliquot addition, visual inspection
- Format: physicochemical
- cond: ethyl acetate, organic solvent or mixture, thermodynamic from solid
- Protocol: Solubilities of Compound 1 in a few solvents were estimated. The experiments were carried out by adding the test solvent in aliquots to weighed portions of solid. […] Solubility numbers were calculated by dividing the total amount of solvent used to dissolve the sample by the weight of the sample. The actual solubilities may be greater than the numbers calculated because of the use of solvent aliquots that were too large or because of slow dissolution rates. […]
readout: solubility (µg/mL)
Lab book: enter the figure in µg/mL, no units written.

Query :: Return reported solubility; argument: `CC(=O)N1CCc2c(C(=O)N3CCC(c4ccc(F)c(F)c4C(F)(F)F)CC3)n[nH]c2C1`
Result :: 1000
